target: Nav 1.7 (Homo sapiens (Human)); test: Inhibition of sodium channels, Red Membrane Potential Dye FLIPR assay, veratridine depolarization; type: cell-based; conditions: HEK-293 cells overexpressing the channel; read-out: Nav1.7 IC50
Lab note: anything with IC50 below 200 nM is marked met; values at 200 nM or higher are marked not met.

Answered cases to consult:
O=S(=O)(Nc1ncccn1)c1ccc2c(c1)OCC[C@H]2c1ccc(C(F)(F)F)cc1OC1CCOCC1
not met
O=S(=O)(Nc1cccnn1)c1ccc2c(c1)OCC[C@@H]2c1ccc(C(F)(F)F)cc1Cl (racemic)
not met
O=S(=O)(Nc1ncc(F)cn1)c1ccc2c(c1)OCC[C@@H]2c1ccc(C(F)(F)F)cc1Cl (racemic)
not met
O=S(=O)(Nc1cccc(F)n1)c1ccc2c(c1)OCC[C@@H]2c1ccc(C(F)(F)F)cc1CCF (racemic)
met
COCCCOc1cc(C(F)(F)F)ccc1[C@H]1CCOc2cc(S(=O)(=O)Nc3ncccn3)ccc21
met
CCCc1cc(C(F)(F)F)ccc1C1CCOc2cc(S(=O)(=O)Nc3cccnn3)ccc21 (stereo not shown) [Example-243]
met

Threshold test, IC50 < 200 nM: COCCCOc1cc(C(F)(F)F)ccc1[C@H]1CCOc2cc(S(=O)(=O)Nc3cccnn3)ccc21 (racemic)
met

###

IC50 for assorted compounds
biological target: Nav 1.5 (Homo sapiens (Human)); assay: Inhibition of sodium channels, Red Membrane Potential Dye FLIPR assay, veratridine depolarization; type: cell-based; details: HEK-293 cells overexpressing the channel; read-out: Nav1.5 IC50
Sequence (Q14524 whole entry): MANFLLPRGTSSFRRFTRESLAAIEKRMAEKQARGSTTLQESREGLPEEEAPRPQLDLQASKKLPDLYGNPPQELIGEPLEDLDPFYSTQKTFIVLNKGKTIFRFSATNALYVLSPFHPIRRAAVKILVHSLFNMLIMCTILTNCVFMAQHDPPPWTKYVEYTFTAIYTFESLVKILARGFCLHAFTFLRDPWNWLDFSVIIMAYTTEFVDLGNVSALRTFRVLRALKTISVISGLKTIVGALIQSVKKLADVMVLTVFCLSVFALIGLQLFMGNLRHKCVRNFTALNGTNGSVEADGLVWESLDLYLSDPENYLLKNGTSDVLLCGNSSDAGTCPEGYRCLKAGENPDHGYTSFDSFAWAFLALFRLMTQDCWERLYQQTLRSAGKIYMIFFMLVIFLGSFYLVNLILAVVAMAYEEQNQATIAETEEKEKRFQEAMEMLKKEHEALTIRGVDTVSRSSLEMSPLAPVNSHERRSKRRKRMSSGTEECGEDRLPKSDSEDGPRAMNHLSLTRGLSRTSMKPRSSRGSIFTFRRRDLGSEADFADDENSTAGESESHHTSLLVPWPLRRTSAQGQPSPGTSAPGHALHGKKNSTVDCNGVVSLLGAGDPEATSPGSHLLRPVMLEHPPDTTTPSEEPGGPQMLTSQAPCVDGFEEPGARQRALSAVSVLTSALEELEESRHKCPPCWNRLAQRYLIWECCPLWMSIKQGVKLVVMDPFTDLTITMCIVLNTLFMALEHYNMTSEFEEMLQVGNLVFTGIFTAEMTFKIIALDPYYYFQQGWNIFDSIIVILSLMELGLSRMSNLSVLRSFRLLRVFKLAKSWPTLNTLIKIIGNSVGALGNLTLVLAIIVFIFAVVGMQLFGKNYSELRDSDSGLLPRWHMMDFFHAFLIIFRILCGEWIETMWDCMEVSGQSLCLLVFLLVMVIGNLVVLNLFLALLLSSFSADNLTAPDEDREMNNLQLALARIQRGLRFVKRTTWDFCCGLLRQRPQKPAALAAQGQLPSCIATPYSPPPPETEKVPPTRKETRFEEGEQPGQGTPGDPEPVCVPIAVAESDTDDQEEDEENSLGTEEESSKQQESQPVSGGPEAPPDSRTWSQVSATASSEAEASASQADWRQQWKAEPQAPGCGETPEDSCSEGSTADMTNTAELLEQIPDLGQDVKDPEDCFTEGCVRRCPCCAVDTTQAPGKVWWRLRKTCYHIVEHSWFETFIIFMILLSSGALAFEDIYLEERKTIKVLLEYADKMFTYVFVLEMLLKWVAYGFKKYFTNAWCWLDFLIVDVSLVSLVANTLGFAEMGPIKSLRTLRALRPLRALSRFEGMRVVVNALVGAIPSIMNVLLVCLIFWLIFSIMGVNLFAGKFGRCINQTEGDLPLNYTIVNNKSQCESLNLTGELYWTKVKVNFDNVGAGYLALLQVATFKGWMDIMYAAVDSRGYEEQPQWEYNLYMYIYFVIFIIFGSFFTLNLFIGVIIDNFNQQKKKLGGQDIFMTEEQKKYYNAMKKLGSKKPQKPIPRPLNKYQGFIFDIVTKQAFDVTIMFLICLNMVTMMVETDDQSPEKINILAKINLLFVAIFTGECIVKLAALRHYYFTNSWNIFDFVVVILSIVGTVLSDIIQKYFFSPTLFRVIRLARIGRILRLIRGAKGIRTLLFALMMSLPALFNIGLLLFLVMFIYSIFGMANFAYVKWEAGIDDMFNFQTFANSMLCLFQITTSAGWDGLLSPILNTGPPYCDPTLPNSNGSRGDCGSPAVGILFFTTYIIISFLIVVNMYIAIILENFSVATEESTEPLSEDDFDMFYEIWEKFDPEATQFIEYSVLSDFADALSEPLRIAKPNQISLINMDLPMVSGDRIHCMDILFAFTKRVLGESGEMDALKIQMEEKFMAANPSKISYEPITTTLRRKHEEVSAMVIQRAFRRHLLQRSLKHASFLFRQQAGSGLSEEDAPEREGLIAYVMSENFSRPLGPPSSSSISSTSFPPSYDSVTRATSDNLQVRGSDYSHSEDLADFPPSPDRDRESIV
Write the value in nM as a bare number.

Consider the following illustrative entries.
COCCCc1cc(C(F)(F)F)ccc1[C@H]1CCOc2cc(S(=O)(=O)Nc3cccnn3)ccc21 (racemic)
2680
O=S(=O)(Nc1cccnn1)c1ccc2c(c1)OCC[C@@H]2c1ccc(C(F)(F)F)cc1CCCCF (racemic)
134

Let us move to another entry and its IC50.
For the compound COCCCc1cc(C(F)(F)F)ccc1[C@H]1CCOc2cc(S(=O)(=O)Nc3ccncn3)ccc21 (racemic) , give its measured IC50 value.
534

###

biological target: Nav 1.7 (Homo sapiens (Human), UniProt Q15858); assay: Inhibition of sodium channels, Red Membrane Potential Dye FLIPR assay, veratridine depolarization; assay type: cell-based; conditions: HEK-293 cells overexpressing the channel; read-out: Nav1.7 IC50
Sequence (Q15858 whole entry): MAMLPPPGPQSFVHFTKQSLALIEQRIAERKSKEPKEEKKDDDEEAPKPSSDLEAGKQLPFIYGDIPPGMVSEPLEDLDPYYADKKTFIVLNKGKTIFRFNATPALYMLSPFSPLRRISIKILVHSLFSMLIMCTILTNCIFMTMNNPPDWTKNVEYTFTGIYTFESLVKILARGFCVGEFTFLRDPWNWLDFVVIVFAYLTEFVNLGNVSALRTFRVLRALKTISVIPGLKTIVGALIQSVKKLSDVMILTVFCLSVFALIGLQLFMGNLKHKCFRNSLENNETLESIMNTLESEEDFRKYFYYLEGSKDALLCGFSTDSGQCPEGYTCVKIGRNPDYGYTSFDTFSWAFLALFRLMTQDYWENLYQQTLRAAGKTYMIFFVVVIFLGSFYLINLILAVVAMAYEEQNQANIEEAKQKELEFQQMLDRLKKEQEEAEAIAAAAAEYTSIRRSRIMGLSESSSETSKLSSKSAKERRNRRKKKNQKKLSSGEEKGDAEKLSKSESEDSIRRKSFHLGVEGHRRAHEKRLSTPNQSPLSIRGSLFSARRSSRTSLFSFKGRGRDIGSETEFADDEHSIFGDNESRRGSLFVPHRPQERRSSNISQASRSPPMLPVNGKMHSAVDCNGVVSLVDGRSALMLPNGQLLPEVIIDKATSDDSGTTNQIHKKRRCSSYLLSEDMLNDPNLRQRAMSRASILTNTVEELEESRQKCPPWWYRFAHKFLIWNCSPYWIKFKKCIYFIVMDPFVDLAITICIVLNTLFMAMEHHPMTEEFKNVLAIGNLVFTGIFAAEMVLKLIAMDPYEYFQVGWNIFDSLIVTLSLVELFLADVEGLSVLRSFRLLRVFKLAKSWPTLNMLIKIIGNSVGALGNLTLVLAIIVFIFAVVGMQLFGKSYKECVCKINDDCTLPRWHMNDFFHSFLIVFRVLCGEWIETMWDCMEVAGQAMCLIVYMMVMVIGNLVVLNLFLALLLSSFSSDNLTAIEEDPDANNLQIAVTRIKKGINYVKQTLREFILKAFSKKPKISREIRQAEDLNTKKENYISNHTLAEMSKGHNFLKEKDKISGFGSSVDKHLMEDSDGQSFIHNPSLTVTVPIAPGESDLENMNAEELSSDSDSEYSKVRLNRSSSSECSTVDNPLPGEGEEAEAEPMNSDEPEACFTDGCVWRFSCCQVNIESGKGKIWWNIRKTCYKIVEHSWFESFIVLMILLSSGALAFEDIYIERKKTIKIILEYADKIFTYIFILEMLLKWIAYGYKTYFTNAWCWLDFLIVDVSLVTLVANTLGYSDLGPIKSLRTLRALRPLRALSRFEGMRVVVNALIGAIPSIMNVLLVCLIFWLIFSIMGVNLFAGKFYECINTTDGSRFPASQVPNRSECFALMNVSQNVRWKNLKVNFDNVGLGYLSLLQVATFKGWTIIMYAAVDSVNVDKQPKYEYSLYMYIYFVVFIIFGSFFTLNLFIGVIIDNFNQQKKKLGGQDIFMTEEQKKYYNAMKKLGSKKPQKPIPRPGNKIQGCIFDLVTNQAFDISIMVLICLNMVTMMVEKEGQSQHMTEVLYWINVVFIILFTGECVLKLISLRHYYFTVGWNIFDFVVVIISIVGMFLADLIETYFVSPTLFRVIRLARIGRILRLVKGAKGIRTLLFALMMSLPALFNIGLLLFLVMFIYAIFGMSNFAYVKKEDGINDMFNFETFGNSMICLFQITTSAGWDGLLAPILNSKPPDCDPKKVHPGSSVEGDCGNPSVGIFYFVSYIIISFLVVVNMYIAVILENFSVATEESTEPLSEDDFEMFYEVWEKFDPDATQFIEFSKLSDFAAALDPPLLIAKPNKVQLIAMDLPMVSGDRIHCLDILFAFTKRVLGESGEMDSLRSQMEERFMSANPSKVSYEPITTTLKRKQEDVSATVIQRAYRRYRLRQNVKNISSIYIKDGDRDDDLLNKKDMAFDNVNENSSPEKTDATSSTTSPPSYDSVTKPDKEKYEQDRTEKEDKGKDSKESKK
readout-name: IC50 (nM)
Write the value in nM as a bare number.

Consider the following illustrative entries.
Cc1cccc(NS(=O)(=O)c2ccc3c(c2)OCC[C@@H]3c2ccc(C(F)(F)F)cc2-c2ccnn2C)n1
245
O=S(=O)(Nc1ncccn1)c1ccc2c(c1)OCC[C@@H]2c1ccc(C(F)(F)F)cc1CCCCF (racemic)
42

For the molecule COCCc1cc(C(F)(F)F)ccc1[C@H]1CCOc2cc(S(=O)(=O)Nc3cccc(F)n3)ccc21 (racemic) , give its measured IC50 value.
12

###

biological target: Nav 1.7 (Homo sapiens (Human)); assay: Inhibition of sodium channels, Red Membrane Potential Dye FLIPR assay, veratridine depolarization; assay type: cell-based; conditions: HEK-293 cells overexpressing the channel; read-out: Nav1.7 IC50
readout-name: IC50 (nM)
Write the value in nM as a bare number.

For the compound Cc1nc(-c2cc(C(F)(F)F)ccc2[C@H]2CCOc3cc(S(=O)(=O)Nc4ncccn4)ccc32)ccc1F (racemic) , give its measured IC50 value.
63

For the compound O=S(=O)(Nc1ncccn1)c1ccc2c(c1)OCCC2c1ccc(C(F)(F)F)cc1O[C@@H]1CCOC1 (stereo partly drawn) [Example-186] , give its measured IC50 value.
83

For the compound CC(C)Oc1ccc(-c2cc(C(F)(F)F)ccc2[C@H]2CCOc3cc(S(=O)(=O)Nc4ncc(F)cn4)ccc32)cn1 , give its measured IC50 value.
75

Entry source: patent US10239869B2
